Where do these numbers come from? They come from ChEMBL document CHEMBL3769333.

assay: Induction of ROS level in anhydrous acetonitrile electrolyte assessed as first half wave redox potential at 2 mM using Ag/AgCl reference electrode by cyclic voltammetry; assay type: physicochemical; conditions: 2000 µM
endpoint: Activity (mV)
Form entry: value (mV) — number only.

Example entries and their recorded answers appear below.
> print(dat)
                  compound.structure.string  units.text  quantitative.result
1  C[n+]1nn(-c2ccccc2)c2c1C(=O)c1ccccc1C2=O.O=S(=O)([O-])C(F)(F)F          mV               -163.5
2  C[n+]1nn(-c2ccc(F)cc2)c2c1C(=O)c1ccccc1C2=O.O=S(=O)([O-])C(F)(F)F          mV               -156.5
3  C[n+]1nn(-c2ccc(C(F)(F)F)cc2)c2c1C(=O)c1ccccc1C2=O.O=S(=O)([O-])C(F)(F)F          mV               -130.5
4  COc1cc(-n2n[n+](C)c3c2C(=O)c2ccccc2C3=O)cc(OC)c1OC.O=S(=O)([O-])C(F)(F)F          mV                 -168
5  COc1cc(OC)cc(-n2n[n+](C)c3c2C(=O)c2ccccc2C3=O)c1.O=S(=O)([O-])C(F)(F)F          mV               -182.5

Exam item: // query Activity value for entry `C[n+]1nn(-c2ccc(Cl)cc2)c2c1C(=O)c1ccccc1C2=O.O=S(=O)([O-])C(F)(F)F`
Marked response: -148.5

Exam item: // query Activity value for entry `Cc1ccc(-n2n[n+](C)c3c2C(=O)c2ccccc2C3=O)cc1.O=S(=O)([O-])C(F)(F)F`
Marked response: -176

Exam item: // query Activity value for entry `COc1ccc(-n2n[n+](C)c3c2C(=O)c2ccccc2C3=O)cc1OC.O=S(=O)([O-])C(F)(F)F`
Marked response: -182

Exam item: // query Activity value for entry `COc1ccc(-n2n[n+](C)c3c2C(=O)c2ccccc2C3=O)cc1.O=S(=O)([O-])C(F)(F)F`
Marked response: -182.5

====

test: Induction of ROS level in anhydrous acetonitrile electrolyte assessed as second half wave redox potential at 2 mM using Ag/AgCl reference electrode by cyclic voltammetry; assay type: physicochemical; details: 2000 µM
endpoint: Activity (mV)
Form entry: value (mV) — number only.

Example entries and their recorded answers appear below.
> print(dat)
                  compound.structure.string  endpoint  quantitative.result
1  C[n+]1nn(-c2ccc(F)cc2)c2c1C(=O)c1ccccc1C2=O.O=S(=O)([O-])C(F)(F)F  Activity                 -886
2  C[n+]1nn(-c2ccccc2)c2c1C(=O)c1ccccc1C2=O.O=S(=O)([O-])C(F)(F)F  Activity               -866.5
3  COc1cc(OC)cc(-n2n[n+](C)c3c2C(=O)c2ccccc2C3=O)c1.O=S(=O)([O-])C(F)(F)F  Activity                 -762

Exam item: // query Activity value for entry `Cc1ccc(-n2n[n+](C)c3c2C(=O)c2ccccc2C3=O)cc1.O=S(=O)([O-])C(F)(F)F`
Marked response: -881.5

Exam item: // query Activity value for entry `C[n+]1nn(-c2ccc(Cl)cc2)c2c1C(=O)c1ccccc1C2=O.O=S(=O)([O-])C(F)(F)F`
Marked response: -842.5

Exam item: // query Activity value for entry `COc1cc(-n2n[n+](C)c3c2C(=O)c2ccccc2C3=O)cc(OC)c1OC.O=S(=O)([O-])C(F)(F)F`
Marked response: -867

Exam item: // query Activity value for entry `COc1ccc(-n2n[n+](C)c3c2C(=O)c2ccccc2C3=O)cc1OC.O=S(=O)([O-])C(F)(F)F`
Marked response: -885.5

Exam item: // query Activity value for entry `C[n+]1nn(-c2ccc(C(F)(F)F)cc2)c2c1C(=O)c1ccccc1C2=O.O=S(=O)([O-])C(F)(F)F`
Marked response: -823.5

Exam item: // query Activity value for entry `COc1ccc(-n2n[n+](C)c3c2C(=O)c2ccccc2C3=O)cc1.O=S(=O)([O-])C(F)(F)F`
Marked response: -885
